# key: entry, value: Percent Effect
biological target: AMP-activated protein kinase, AMPK (Homo sapiens) (UniProt P54646+O43741+P54619+Q9UGJ0+Q9Y478+Q13131+Q9UGI9); experiment: AMP-dependent Kinase enzyme assay. An in vitro enzyme assay that detects ADP turnover that is directly proportional to AMPK activity. This uses naive AMPK that is activated during the assay with MK-8722; assay type: functional; design: scale not given: direction of the effect not stated beside the values; details: 30 µM
Reported Property: Percent Effect (%)

O=C(c1ccc(Br)o1)N1CCCCC1Cn1cccn1 (stereo not drawn) ... -1.88
CCC(=O)N1CCCC(c2cc(Nc3ncccn3)nc(C)n2)C1 (stereo not drawn) ... 13.2
CCN(C(=O)Nc1cccnc1OC)C1CC1 ... -6.43
Cc1ccc(CN2CCC3(CC(C(=O)NCC4CC4)=NO3)C2)cc1C (stereo not drawn) ... 7.69
CC(CCc1ccccc1)NC(=O)Nc1cnn(CC(N)=O)c1 (stereo not drawn) ... -2.88
Cn1ccnc1CN1CCC2(CC1)CC(NC(=O)c1ccccn1)CO2 (stereo not drawn) ... -1.66
COc1ccc(-c2cnc(CN3CCn4c(C)nnc4C3)o2)cc1 ... -2.37
CCOc1ncccc1NC(=O)c1cc(C)c(C)s1 ... 3.33
O=C(CCc1cscn1)N1CCCC(n2ccnc2)C1 (stereo not drawn) ... 6.89
CCN(Cc1ccc2c(c1)OCCO2)C(=O)NC(C)Cn1ccnc1 (stereo not drawn) ... -1.99
CCn1ccnc1CN1CCCC(CO)(Cc2cccc(Cl)c2)C1 (stereo not drawn) ... -2.31
Cn1cccc1C(=O)NCc1cnc2n1CCN(C(=O)N1CCCC1)C2 ... -1.93
CCn1nc(C(=O)N2CCCC(n3cncn3)C2)ccc1=O (stereo not drawn) ... 7.01
Cc1csc(CN2CC[C@H]3C[C@H](c4nnc(C)[nH]4)O[C@@H]3C2)n1 ... 0.599
Cc1ccoc1C(=O)N1CC[C@H]2O[C@@H](C)C[C@H]2C1 ... -6.43
CC(C)N1CCC(Cc2cnc(-c3cccc(C(=O)O)c3)cn2)C1 (stereo not drawn) ... 12.1
Cc1cccc(CN2CCN(Cc3ccccc3)CC(O)C2)n1 (stereo not drawn) ... -4.59
CN(CCC(F)(F)F)C(=O)[C@H]1CSCN1C(=O)OC(C)(C)C ... 3.13
Cc1nnc(N2C[C@@H](OCCCn3cccn3)[C@H]3OCCC[C@H]32)s1 ... -5.05
c1cc(C2CCCN2Cc2nnnn2C2CC2)cs1 (stereo not drawn) ... -9.7
N#CC1(C(=O)N2CCN(Cc3cscn3)CC2)CCCC1 ... -7.12
Cc1nnc(N2CCCC3(CN(Cc4ccc(C)s4)CCO3)C2)o1 (stereo not drawn) ... -2.15
Cc1cccc(C2(CNC(=O)CCN3C(=O)CCC3=O)CCCC2)c1 ... 1.38
CN(CC1CC1)C(=O)CN(Cc1cccc(O)c1)C1CCC(O)CC1 (stereo not drawn) ... -5.33
CNS(=O)(=O)c1ccc(C(=O)N2CCCC2Cc2ccccc2)o1 (stereo not drawn) ... 1.36
COCCN1C[C@H]2[C@@H](C1)N(Cc1ccc(C)o1)CC[C@H]2OC ... -5.66
Cc1ccc(CNC(CN2CCN(C)CC2)c2ccccc2)cc1 (stereo not drawn) ... -8.66
Cn1cc(C2COC3(CCN(C(=O)Cn4cccn4)CC3)C2)cn1 (stereo not drawn) ... -8.57
Cc1ccc(F)cc1NC(=O)NCC(C)N1CCOCC1 (stereo not drawn) ... 0.541
O=C(CCn1cccn1)N1CCN(CC(F)F)CC1 ... -2.79
O=C(COC(=O)Cc1cccs1)NCc1cccc(NC(=O)C2CC2)c1 ... 1.38
COc1ccc(C(CO)NC(=O)Nc2cccc(C#N)c2)cc1 (stereo not drawn) ... -2.87
CC(=O)NCC(=O)N1CCN(CC2CC2)c2ncccc2C1 ... 8.23
COCc1noc(C2(c3ccc(Br)cc3)CCOCC2)n1 ... 1.95
CC(C)c1cc(NC(=O)CN2CCc3c(nc(C(C)C)n3C)C2)on1 ... -3.17
Cc1cc(C)n(CC2CN(CC(=O)Nc3nncs3)CCO2)n1 (stereo not drawn) ... 1.37
CCC(=O)NC1CCN(c2cccc(CC)c2)CC1 ... 2.12
Cc1ccccc1C(=O)N1CCC(n2nnc3cc(F)ccc32)CC1 ... 12
N#CC1(C(=O)NCCCNc2ccc(C(F)(F)F)cn2)CCCC1 ... 6.89
CCc1cccc(N2CCC(NC(=O)c3ccc(=O)[nH]n3)CC2)c1 ... 2.33
Cc1nc(C)c(C(=O)NCCNC(=O)c2ccc(F)cc2F)s1 ... -1.06
CCC1CN(C(=O)c2ccc(=O)[nH]c2)CCC(=O)N1Cc1ccccc1 (stereo not drawn) ... -3.51
COCCN(Cc1ccc(F)cc1Cl)C(=O)c1cccc[n+]1[O-] ... 3.97
CCn1nnc2c1C(COC)CN(Cc1cccs1)C2 (stereo not drawn) ... 4.39
COc1nc(C)cc(C)c1CNC(=O)N(C)Cc1cnn(C)c1 ... -7.89
Cc1cccc(-c2nc(CN3CCc4cnc(C)nc4C3)no2)c1 ... 64
CC(C)N1CCOCC2(CN(Cc3nccs3)CCO2)C1 (stereo not drawn) ... -4.7
c1nc2c(c(C3CC3)n1)CCN(CC1CCOC1)CC2 (stereo not drawn) ... 3.6

* * *

biological target: Sialic acid-binding Ig-like lectin 9 (Homo sapiens) (UniProt Q9Y336); assay: Hs-Siglec9 ALPHAscreen SOP 20170721; set-up: scale not given: direction of the effect not stated beside the values; details: 10 µM
Sequence (Q9Y336 whole entry): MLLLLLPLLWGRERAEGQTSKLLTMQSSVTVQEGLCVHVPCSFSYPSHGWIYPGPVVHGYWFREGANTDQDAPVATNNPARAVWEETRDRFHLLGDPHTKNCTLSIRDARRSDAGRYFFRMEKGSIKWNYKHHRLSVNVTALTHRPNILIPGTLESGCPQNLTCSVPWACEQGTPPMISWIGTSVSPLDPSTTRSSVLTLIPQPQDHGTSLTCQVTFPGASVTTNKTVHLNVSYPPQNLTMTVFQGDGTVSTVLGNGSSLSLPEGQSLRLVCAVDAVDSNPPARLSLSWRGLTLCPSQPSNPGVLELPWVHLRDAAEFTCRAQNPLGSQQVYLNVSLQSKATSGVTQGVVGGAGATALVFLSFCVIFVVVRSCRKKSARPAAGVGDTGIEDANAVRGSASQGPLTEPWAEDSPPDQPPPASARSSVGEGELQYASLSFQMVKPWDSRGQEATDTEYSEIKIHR
Catalogue of Percent Effect values
Reported Property: Percent Effect (%)

CC(=O)Nc1nc(CN2CCCC2Cn2cc(C)cn2)cs1 (stereo unspecified) ... -21.8
CCn1c(CN2CCCC2)nnc1C1CCN(Cc2ccc(C)o2)CC1 ... 4.03
C[C@]1(O)CCN(Cc2cncs2)C[C@@H]1Oc1cccc(F)c1 ... 6.06
Fc1cccc(-c2nc(CN3CCOC(Cn4cncn4)C3)co2)c1 (stereo unspecified) ... 1.46
O=C(Cn1cc(-c2ccccc2)ncc1=O)Nc1nnc[nH]1 ... 4.37
N#CC1(C(=O)NCCCNc2ccc(C(F)(F)F)cn2)CCCC1 ... 5.29

* * *

target: Arginase-2, mitochondrial (Homo sapiens); assay: in vitro enzyme assay to detect the production of urea directly proportional to the activity of Arginase II; type: functional; design: scale not given: in the data most compounds retested in dose-response had high values; details: 33.3 µM
Reported Property: Percent Effect (%)

CC(C)c1cc(N2CCC(CCC(=O)NC3CC3)CC2)n2nccc2n1 ... 2.45
Cc1ccc(C2COCCN2C(=O)c2ccc(N(C)C)cc2)o1 (configuration not stated) ... 13.5
CO[C@H]1CCN(c2ncccn2)[C@H]1Cc1ccccc1 ... -13.8
CCc1nnc2n1CCN(C(=O)c1cc3ccc(F)cc3nc1C)C2 ... -3.92
C[C@H]1C[C@H]2CN(C(=O)c3ccncn3)CC[C@H]2O1 ... 2.08
CCOc1ncccc1NC(=O)N1CCCCCC1 ... -1.29
CN(C)C[C@H]1OC[C@@H]2CCN(S(=O)(=O)c3cccs3)C[C@@H]21 ... -2.43
Cn1cc(CN2CCn3cc(CNC(=O)c4cccn4C)nc3C2)cn1 ... -0.699
Cc1ccc(C(=O)N2CCCS2(=O)=O)cc1Cl ... 3.1
CN(CC(=O)N1CCCC1Cn1cccn1)c1cnccn1 (configuration not stated) ... -1.9
CSc1ccccc1C(C(=O)O)N1CCN(Cc2ccccn2)CC1 (configuration not stated) ... 60.5
Cc1cnn(CC2CN(CC(=O)N3CCc4ccccc43)CCO2)c1 (configuration not stated) ... 3.55

* * *

target: Tyrosyl-tRNA synthetase, putative (Trypanosoma cruzi (strain CL Brener)) (UniProt Q4DSP6); test: Trypanosoma cruzi tyrosyl tRNA synthetase (TcYRS) _High Tyrosine SOP; assay type: functional; set-up: scale not given: in the data most compounds retested in dose-response had high values; conditions: 30 µM
Sequence (Q4DSP6 as listed by the source): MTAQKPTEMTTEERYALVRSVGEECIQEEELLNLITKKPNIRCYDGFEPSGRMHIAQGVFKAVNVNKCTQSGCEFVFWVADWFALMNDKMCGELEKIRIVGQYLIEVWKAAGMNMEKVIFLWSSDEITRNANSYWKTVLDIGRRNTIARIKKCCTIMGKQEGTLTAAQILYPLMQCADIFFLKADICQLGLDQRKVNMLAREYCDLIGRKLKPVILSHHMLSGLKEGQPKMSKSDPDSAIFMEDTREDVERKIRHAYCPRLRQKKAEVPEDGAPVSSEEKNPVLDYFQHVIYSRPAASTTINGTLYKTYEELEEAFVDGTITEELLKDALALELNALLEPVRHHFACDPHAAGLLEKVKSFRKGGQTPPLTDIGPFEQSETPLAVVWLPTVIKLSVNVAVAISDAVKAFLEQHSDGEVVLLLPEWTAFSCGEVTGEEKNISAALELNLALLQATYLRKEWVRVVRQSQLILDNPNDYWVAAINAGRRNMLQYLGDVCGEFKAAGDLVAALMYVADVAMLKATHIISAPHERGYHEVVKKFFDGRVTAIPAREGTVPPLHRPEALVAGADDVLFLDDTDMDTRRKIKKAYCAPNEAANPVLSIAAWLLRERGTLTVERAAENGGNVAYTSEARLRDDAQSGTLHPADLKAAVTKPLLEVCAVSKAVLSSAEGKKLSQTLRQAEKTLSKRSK
Reported Property: Percent Effect (%)

Cn1nc(C#N)c2c1CN(C(=O)c1cccnc1)CCC2 ... -2.12
CCc1nc(C2CCCN2C(=O)C2=COCC2)no1 (centres undefined) ... 4.74
CCO[C@H]1CO[C@@]2(CCCN(S(=O)(=O)c3ccccc3)C2)C1 ... 2.63
O=C(c1cccc2c1OCO2)N1CCCC1c1noc(C2CC2)n1 (centres undefined) ... 4.43
O=C(COCc1nc(-c2ccncc2)no1)N1CCCCCC1 ... 5.38
CC(NC(=O)NCCCn1cncn1)c1ccccc1Cl (centres undefined) ... 3.68
CCS(=O)(=O)N1CCCc2ccc(NC(=O)Cc3ccc(F)cc3)cc21 ... -5.29
CC(C)NC(=O)Nc1ccc(CS(=O)(=O)C(C)(C)C)cc1 ... 2.13
CCNC(=O)c1cnc(Cc2ccc(F)cc2)s1 ... 3.83
COCC(=O)N1CCC(c2cc(C(F)(F)F)n3ccnc3n2)CC1 ... 3.17
CC(NC1(CNC(=O)C(C)(C)C#N)CCOCC1)c1ccccc1 (centres undefined) ... -7.53
CSc1ccccc1CN1CCCn2nc(CNC(=O)N(C)C)cc2C1 ... 4.3
O=C(NCc1ccco1)[C@H]1C[C@H]2OCC[C@H]2N(C(=O)c2ccco2)C1 ... -3.12
COc1ncc(C2(O)CCN(Cc3ccccc3O)CC2)c(OC)n1 ... 6.35
COc1ccc(C)cc1CSCCn1nc2ccccn2c1=O ... 3.81
CCCc1cc(C(=O)N2CCCC2c2cccnc2)[nH]n1 (centres undefined) ... 4.79
Cc1cc(C)n(C2CN(CC(=O)NCC(C)(C)N3CCOCC3)C2)n1 ... 5.21
CCOc1ccccc1C(=O)N1CCCC1c1ncc2c(n1)CCNC2 (centres undefined) ... -6.35
O=C(Nc1nnc(C2CC2)s1)NC1CCN(Cc2ccccc2)C1 (centres undefined) ... 0.478
Cc1cc(C)n(CC2CCCN2CCc2ccncc2)n1 (centres undefined) ... 3.35
Cn1nc(C2CCCN(Cc3cccc(F)c3)C2)c2nccnc21 (centres undefined) ... 2.15
Cc1c[nH]cc1C(=O)N1CCN(CCc2cccs2)CC1 ... 5.26
c1ccc(-c2ncc(CNC3CCc4ncnn4C3)cn2)cc1 (centres undefined) ... 7.29
Cc1ccc2c(n1)N(CCn1cccn1)CCN(C(=O)NC1CC1)C2 ... 5.38
